Test system: VEGFR2
Construct: gene KDR
Conditions: concentration: 1 μM, replicates: in singlicate; n = 1;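 further: KINOMEscan kinase panel screen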
Measurement Type: %Inh (%)
State just the number; it will be interpreted in %.

(Q) Supply %Inh value. Item: `FC(F)(F)c1ccc(/C=C/c2cncnc2Nc2ccc3[nH]c(Cc4ccccc4)nc3c2)cc1`
(A) 0

(Q) Supply %Inh value. Item: `COc1ccc(CNC(=O)NC2CCN(c3ccnc(Nc4ccc(F)cc4)n3)CC2)cc1`
(A) 0

(Q) Supply %Inh value. Item: Cc1ccc(C)c(NC(=O)NC2CCN(c3ccnc(Nc4ccc(F)cc4)n3)C2)c1 (centres unmarked)
(A) 0

(Q) Supply %Inh value. Item: `c1ccc(Oc2ccc(Nc3ccnc4cc(-c5ccc(CNCCN6CCOCC6)o5)ccc34)cc2)nc1`
(A) 0

(Q) Supply %Inh value. Item: `Nc1ncc(-c2ccc3nccc(-c4ccncc4)c3c2)cc1S(=O)(=O)N1CCOCC1`
(A) 0

(Q) Supply %Inh value. Item: `COc1cccc(-c2ccc3c(NC(=O)C4CC4)n[nH]c3n2)c1`
(A) 0

(Q) Supply %Inh value. Item: `c1ccc(-c2n[nH]cc2Nc2ccnc3ccccc23)nc1`
(A) 23

(Q) Supply %Inh value. Item: `O=c1[nH]cc(-c2ccc(N3CCOCC3)cc2)c2sc(-c3cn[nH]c3)cc12`
(A) 17

(Q) Supply %Inh value. Item: `Fc1ccc(-c2ncn(C3CCNCC3)c2-c2ccnc(Oc3ccc(-c4ccccc4)cc3)n2)cc1`
(A) 12

(Q) Supply %Inh value. Item: Cl.Cl.NCC(C(=O)Nc1cc(Br)c(-c2ccnc3[nH]ccc23)s1)c1ccccc1 (centres unmarked)
(A) 0

(Q) Supply %Inh value. Item: `O=C(Nc1cccc(-c2nn3ccccc3c2-c2ccnc(Nc3cccc(C(F)(F)F)c3)n2)c1)c1c(F)cccc1F`
(A) 8

(Q) Supply %Inh value. Item: `CCn1c(-c2nonc2N)nc2c(C#CC(C)(C)O)ncc(OCCCCN)c21.O=C(O)C(F)(F)F.O=C(O)C(F)(F)F`
(A) 0

(Q) Supply %Inh value. Item: Cl.Cl.NCC(NCc1ccc(-c2ccnc3[nH]ccc23)s1)c1ccccc1 (centres unmarked)
(A) 17

(Q) Supply %Inh value. Item: `Clc1ccc(-c2nn3ncccc3c2-c2ccnc(Nc3ccc4c(c3)OCCO4)n2)cc1`
(A) 29

(Q) Supply %Inh value. Item: `O=C(Nc1n[nH]c2cc(-c3ccoc3)ccc12)C1CC1`
(A) 32

(Q) Supply %Inh value. Item: `COc1cc(Nc2ncc3c(C)nc(-c4cc5ccccc5[nH]4)n3n2)cc(OC)c1OC`
(A) 0

(Q) Supply %Inh value. Item: `COCCOCCOc1cc2ncc3c4ccc(C#N)cc4[nH]c3c2cc1OC`
(A) 0

* * *

System: PKMYT1
Settings: concentration: 1 μM, replicates: in singlicate; n = 1
Measurement Type: %Inh (%)
State just the number; it will be interpreted in %.

(Q) Supply %Inh value. Item: `Cc1cccc(Nc2nc(N[C@H]3CCNC3)ncc2C(N)=O)c1.Cl`
(A) 0

(Q) Supply %Inh value. Item: `CC(=O)Nc1nc2cnc(Nc3cc(NC(=O)c4cccc(C5(C#N)CC5)c4Cl)ccc3C)nc2s1`
(A) 0

(Q) Supply %Inh value. Item: `c1ccc(-c2n[nH]cc2Nc2ccnc3ccccc23)nc1`
(A) 0

(Q) Supply %Inh value. Item: `Oc1cc(Nc2ccnc3cc(I)ccc23)ccc1F`
(A) 0

(Q) Supply %Inh value. Item: `Nc1ncc(-c2cccnc2)c2scc(-c3ccc4c(c3)CCN4C(=O)Cc3ccccc3)c12`
(A) 13

* * *

Task for the reader: assign each of the following compounds its reported %Inh.
Test system: JNK2
Construct: gene MAPK9
Settings: concentration: 1 μM, replicates: in singlicate; n = 1
State just the number; it will be interpreted in %.

(Q) Would you please give the reported %Inh of COc1cccc(NC(=O)NC2CCN(c3ccnc(Nc4cc(OC)c(OC)c(OC)c4)n3)C2)c1 (centres unmarked) [GSK1379763] with JNK2?
(A) 27

(Q) Would you please give the reported %Inh of O=C(Nc1cccc(-c2nn3ccccc3c2-c2ccnc(Nc3cccc(F)c3)n2)c1)c1c(F)ccc(F)c1Cl [GSK357952] with JNK2?
(A) 23

(Q) Would you please give the reported %Inh of `Cc1ccc(C(=O)N2CC[C@@H](O)C2)cc1-n1c(C)cc(OCc2ccc(F)cc2F)c(Br)c1=O` with JNK2?
(A) 0

(Q) Would you please give the reported %Inh of CC(C)(C)c1ccc2nccc(Nc3cccc(O)c3)c2c1 [GW856795] with JNK2?
(A) 23

(Q) Would you please give the reported %Inh of CN(C)Cc1ccc(-c2ccc3c(Nc4ccc(Oc5ccccn5)cc4)ccnc3c2)o1 [GW567148] with JNK2?
(A) 4

(Q) Would you please give the reported %Inh of O=C(Nc1cccc(-c2nn3ccccc3c2-c2ccnc(Nc3cccc(C(F)(F)F)c3)n2)c1)c1c(F)cccc1F [GSK292658] with JNK2?
(A) 0

(Q) Would you please give the reported %Inh of Cn1cc(-c2ccc3c(c2)CCN3C(=O)Cc2cccc(Cl)c2)c2c(N)ncnc21 [GSK2606590] with JNK2?
(A) 42

(Q) Would you please give the reported %Inh of Cc1cccc(Nc2nc(N[C@H]3CCNC3)ncc2C(N)=O)c1.Cl [GSK2197149] with JNK2?
(A) 29

* * *

System: PRKD3
Settings: concentration: 1 μM, replicates: in singlicate; n = 1
Task for the reader: assign each of the following molecules its reported %Inh.
State just the number; it will be interpreted in %.

(Q) Supply %Inh value. Item: `COc1cccc(C2=C(Nc3ccc(Cl)c(C(=O)O)c3)C(=O)NC2=O)c1`
(A) 0

(Q) Supply %Inh value. Item: `FC(F)(F)c1ccc(/C=C/c2cncnc2Nc2ccc3[nH]c(Cc4ccccc4)nc3c2)cc1`
(A) 0

(Q) Supply %Inh value. Item: `Cc1ccc(F)c(C(=O)Nc2cccc(-c3nn4ccccc4c3-c3ccnc(Nc4cccc(F)c4)n3)c2)c1F`
(A) 32

(Q) Supply %Inh value. Item: `Cn1cc(-c2ccc3c(c2)CCN3C(=O)Cc2cccc(Cl)c2)c2c(N)ncnc21`
(A) 9

(Q) Supply %Inh value. Item: `CCCCc1nn2ncccc2c1-c1ccnc(Nc2ccc(N3CCN(C)CC3)cc2)n1`
(A) 86

(Q) Supply %Inh value. Item: Cl.Cl.NCC(NC(=O)c1cc(-c2ccccc2)c(-c2ccnc3[nH]ccc23)s1)c1ccccc1 (stereo not drawn)
(A) 38

(Q) Supply %Inh value. Item: NCCCC(NC(=O)c1cc(Br)c(-c2ccnc3[nH]ccc23)s1)c1ccccc1.O=C(O)C(F)(F)F.O=C(O)C(F)(F)F (stereo not drawn)
(A) 53

(Q) Supply %Inh value. Item: `COc1ccc(Nc2nccc(NCCNC(=O)c3cc4ccccc4s3)n2)cc1`
(A) 0

(Q) Supply %Inh value. Item: `COc1cccc(C(=O)Nc2cccc(Oc3ccc4nc(NC(=O)C5CC5)cn4n3)c2)c1`
(A) 15

(Q) Supply %Inh value. Item: `c1ccc(Oc2ccc(Nc3ccnc4cc(-c5ccc(CNCCN6CCOCC6)o5)ccc34)cc2)nc1`
(A) 23

(Q) Supply %Inh value. Item: `CCc1ccc(-c2ccc3c(c2)-c2c(cnn2C)S(=O)(=O)N3C)cc1`
(A) 0

(Q) Supply %Inh value. Item: `Cc1cccc(Nc2nc(N[C@H]3CCNC3)ncc2C(N)=O)c1.Cl`
(A) 75

(Q) Supply %Inh value. Item: `Fc1ccc(-c2ncn(C3CCNCC3)c2-c2ccnc(Oc3ccc(-c4ccccc4)cc3)n2)cc1`
(A) 0

(Q) Supply %Inh value. Item: `O=C(Nc1cccc(-c2nn3ccccc3c2-c2ccnc(Nc3cccc(C(F)(F)F)c3)n2)c1)c1c(F)cccc1F`
(A) 29

(Q) Supply %Inh value. Item: COc1cc(Nc2nccc(N3CCC(NC(=O)c4cc5ccccc5s4)C3)n2)cc(OC)c1OC (stereo not drawn)
(A) 0

* * *

Test system: CSNK2A1
Settings: concentration: 1 μM, replicates: in singlicate; n = 1
Measurement Type: %Inh (%)
State just the number; it will be interpreted in %.

(Q) Supply %Inh value. Item: `CNC(=O)c1ccccc1Nc1nc(Nc2ccc(N3CCOCC3)cc2)ncc1Cl.Cl`
(A) 99.8

(Q) Supply %Inh value. Item: `O=C(Nc1cccc(-c2nn3ccccc3c2-c2ccnc(Nc3cccc(C(F)(F)F)c3)n2)c1)c1c(F)cccc1F`
(A) 7

(Q) Supply %Inh value. Item: `COc1cccc(-c2ccc3c(NC(=O)C4CC4)n[nH]c3n2)c1`
(A) 0

(Q) Supply %Inh value. Item: `COC(=O)Nc1nc2ccc(Oc3ccc(NC(=O)Nc4cc(C(F)(F)F)ccc4F)cc3)cc2n1C.Cl`
(A) 0

(Q) Supply %Inh value. Item: `Fc1ccc(-c2ncn(C3CCNCC3)c2-c2ccnc(Oc3ccc(-c4ccccc4)cc3)n2)cc1`
(A) 0

(Q) Supply %Inh value. Item: `CN1CCN(CCCNc2nccc(-c3c(-c4ccc(F)cc4)nn4cc(C(F)(F)F)ccc34)n2)CC1`
(A) 0

(Q) Supply %Inh value. Item: COc1ccc(Nc2nccc(N3CCC(NC(=O)Nc4cccc(OC)c4)C3)n2)cc1 (centres unmarked)
(A) 6

(Q) Supply %Inh value. Item: `CC(C)(C)c1ccc2nccc(Nc3cccc(O)c3)c2c1`
(A) 0

(Q) Supply %Inh value. Item: `O=c1[nH]cc(-c2ccc(N3CCOCC3)cc2)c2sc(-c3cn[nH]c3)cc12`
(A) 64

(Q) Supply %Inh value. Item: Cl.Cl.NCC(C(=O)Nc1cc(Br)c(-c2ccnc3[nH]ccc23)s1)c1ccccc1 (centres unmarked)
(A) 79

(Q) Supply %Inh value. Item: `CN(C)Cc1ccc(-c2ccc3c(Nc4ccc(Oc5ccccn5)cc4)ccnc3c2)o1`
(A) 0

(Q) Supply %Inh value. Item: `Cc1ccc(C(=O)N2CC[C@@H](O)C2)cc1-n1c(C)cc(OCc2ccc(F)cc2F)c(Br)c1=O`
(A) 0

(Q) Supply %Inh value. Item: `Nc1ncc(-c2ccc3nccc(-c4ccncc4)c3c2)cc1S(=O)(=O)N1CCOCC1`
(A) 5

(Q) Supply %Inh value. Item: `c1ccc(Oc2ccc(Nc3ccnc4cc(-c5ccc(CNCCN6CCOCC6)o5)ccc34)cc2)nc1`
(A) 0

(Q) Supply %Inh value. Item: `CC(C)c1nc(-c2cccc(NS(=O)(=O)c3c(F)cccc3F)c2F)c(-c2ccnc(Nc3ccc(N4CCOCC4)nc3)n2)s1`
(A) 7

(Q) Supply %Inh value. Item: `COc1cccc(C2=C(Nc3ccc(Cl)c(C(=O)O)c3)C(=O)NC2=O)c1`
(A) 0

(Q) Supply %Inh value. Item: `Nc1ncc(-c2cccnc2)c2scc(-c3ccc4c(c3)CCN4C(=O)Cc3ccccc3)c12`
(A) 77
